B1: Mineralocorticoid receptor, residues 600 to 675; numbered along this chain, P08235 (parent)
chain: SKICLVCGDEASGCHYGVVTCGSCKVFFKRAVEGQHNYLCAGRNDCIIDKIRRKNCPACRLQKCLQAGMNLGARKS

Variants of: B1
Experiment: abundance fitness (aPCA) (normalised: wild type 0, dead -1); higher = more abundant; growth selection in yeast, the domain comes from the species named
Conditions: Homo sapiens
outcome.measure: abundance fitness
Lab note: record just the number, no unit beside it.

**Q:** Indicate its recorded abundance fitness; the variant in question is "D45V"
**A:** -0.074

**Q:** Indicate its recorded abundance fitness; the variant in question is "S76D"
**A:** -0.031

**Q:** Indicate its recorded abundance fitness; the variant in question is "R43G"
**A:** -0.006

**Q:** Indicate its recorded abundance fitness; the variant in question is "I47L"
**A:** 0.022

**Q:** Indicate its recorded abundance fitness; the variant in question is "G17C"
**A:** -0.049

**Q:** Indicate its recorded abundance fitness; the variant in question is "A41Q"
**A:** -0.074

---
**Q:** Indicate its recorded abundance fitness; the variant in question is "V19G"
**A:** -0.082

**Q:** Indicate its recorded abundance fitness; the variant in question is "V6Y"
**A:** -0.489

**Q:** Indicate its recorded abundance fitness; the variant in question is "V18T"
**A:** -0.444
